Where do these numbers come from? They come from paper PMC10046961.

Exercise: for every item that follows, state its recorded Peak Number—3D Mean.
system: hiPSC-derived neurons co-cultured with human primary astrocytes in 3D; assay: Ca2+ transient oscillation assay (FDSS), 3D spheroids; assay type: cell-based; conditions: 3.33 µM; 60 min
Report only the number, with the unit % change from baseline understood.

// lookup Peak Number—3D Mean for CCn1cc(C(=O)O)c(=O)c2cc(F)c(N3CCNCC3)nc21
13.2

Please give the measured Peak Number—3D Mean for this compound: CC[C@@H]1C(=O)OC[C@@H]1Cc1cncn1C
12.9

// query Peak Number—3D Mean value for entry N[C@@H](CCC(=O)O)C(=O)O [Glutamate]
12.3

What Peak Number—3D Mean value was documented for this compound, Cc1ccc(Nc2nccc(N(C)c3ccc4c(C)n(C)nc4c3)n2)cc1S(N)(=O)=O ?
0.8

Item CC(=O)Nc1ccc(O)cc1 has what recorded Peak Number—3D Mean?
−3.0

Quick one: Peak Number—3D Mean for CN1CCc2cc3c(cc2[C@H]1[C@@H]1OC(=O)c2c1ccc1c2OCO1)OCO3 ?
5.8

Form field: reported Peak Number—3D Mean of CCN(CC)CCCC(C)Nc1c2ccc(Cl)cc2nc2ccc(OC)cc12 (stereo not drawn)
14.1

Fill blank: measured Peak Number—3D Mean of the compound OC(c1cc(C(F)(F)F)nc2c(C(F)(F)F)cccc12)C1CCCCN1 (stereo not drawn) is ____.
−11.1

If you can, please state the reported Peak Number—3D Mean value of CNCCCC12CCC(c3ccccc31)c1ccccc12 .
−7.9

// lookup Peak Number—3D Mean for CC(NC(C)(C)C)C(=O)c1cccc(Cl)c1 (stereo not drawn)
−2.2
